# credit: patent EP3383875B1

Target: CDK-2/cyclin A (Homo sapiens, UniProt P24941)
Experiment: CDK inhibition assay, CDK-2/cyclin A against Histone HI, 33P-ATP
Assay type: biochemical
Conditions: at 500 nM; read-out: inhibition against CDK2

- chemical.structure: "c1ccc2c(-c3cnc4[nH]cc(-c5ccnc(NC6CC6)n5)c4c3)nccc2c1"
  inhibition at 0.5 µM: "> 50%"
- chemical.structure: "Fc1cccc(-c2cnc3[nH]cc(-c4ccnc(NC5CC5)n4)c3c2)c1"
  inhibition at 0.5 µM: "> 70%"
- chemical.structure: "CCc1ccccc1-c1cnc2[nH]cc(-c3ccnc(NC4CCCCCC4)n3)c2c1"
  inhibition at 0.5 µM: "> 70%"
- chemical.structure: "FC(F)(F)Oc1ccc(-c2cnc3[nH]cc(-c4ccnc(NCCc5ccccc5)n4)c3c2)cc1"
  inhibition at 0.5 µM: "> 50%"
- chemical.structure: "Cc1cccc(-c2cnc3[nH]cc(-c4ccnc(NC5CC5)n4)c3c2)c1"
  inhibition at 0.5 µM: "> 70%"
- chemical.structure: "COc1ccc2[nH]c(-c3cnc4[nH]cc(-c5ccnc(NCCc6ccccc6)n5)c4c3)cc2c1"
  inhibition at 0.5 µM: "> 50%"
- chemical.structure: "Cc1ccc(-c2cnc3[nH]cc(-c4ccnc(NC5CCCCCC5)n4)c3c2)cc1"
  inhibition at 0.5 µM: "> 50%"

###

Biological target: CDK-9/Cyclin T1 (Homo sapiens, UniProt P50750)
Sequence (P50750 whole entry): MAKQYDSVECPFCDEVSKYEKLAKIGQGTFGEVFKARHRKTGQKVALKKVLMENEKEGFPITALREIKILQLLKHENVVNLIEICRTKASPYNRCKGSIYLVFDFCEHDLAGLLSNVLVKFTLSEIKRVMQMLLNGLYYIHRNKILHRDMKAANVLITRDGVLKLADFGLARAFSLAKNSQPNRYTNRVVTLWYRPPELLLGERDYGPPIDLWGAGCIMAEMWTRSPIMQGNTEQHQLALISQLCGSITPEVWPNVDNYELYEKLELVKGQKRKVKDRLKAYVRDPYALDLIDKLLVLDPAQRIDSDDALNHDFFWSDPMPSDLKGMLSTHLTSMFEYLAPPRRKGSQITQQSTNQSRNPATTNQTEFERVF
Sequence (O60563 whole entry partner): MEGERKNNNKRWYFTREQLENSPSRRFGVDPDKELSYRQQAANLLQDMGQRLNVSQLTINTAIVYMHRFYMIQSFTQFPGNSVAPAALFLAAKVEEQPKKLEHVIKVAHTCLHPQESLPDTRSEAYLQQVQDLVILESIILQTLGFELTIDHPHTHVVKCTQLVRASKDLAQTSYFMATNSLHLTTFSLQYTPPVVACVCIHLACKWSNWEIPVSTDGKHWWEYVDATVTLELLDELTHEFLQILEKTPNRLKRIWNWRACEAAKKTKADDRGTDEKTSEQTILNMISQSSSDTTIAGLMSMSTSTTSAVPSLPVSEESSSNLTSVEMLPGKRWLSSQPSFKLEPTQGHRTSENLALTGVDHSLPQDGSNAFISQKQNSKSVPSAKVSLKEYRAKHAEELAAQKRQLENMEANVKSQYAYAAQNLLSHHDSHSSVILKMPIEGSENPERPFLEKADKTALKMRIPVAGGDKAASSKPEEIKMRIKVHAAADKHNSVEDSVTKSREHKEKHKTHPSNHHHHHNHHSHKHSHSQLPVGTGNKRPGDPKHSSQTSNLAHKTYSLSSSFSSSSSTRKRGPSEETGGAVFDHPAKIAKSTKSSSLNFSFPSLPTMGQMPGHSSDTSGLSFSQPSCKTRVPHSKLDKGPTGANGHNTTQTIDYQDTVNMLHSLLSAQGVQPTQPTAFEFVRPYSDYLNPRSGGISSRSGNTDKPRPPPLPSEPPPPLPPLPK
Assay: CDK inhibition assay, CDK-9/Cyclin T1 against substrate peptide, 33P-ATP
Assay type: biochemical
Conditions: at 500 nM; Table-7; read-out: In vitro CDK9 % of inhibition
measured.property: inhibition at 0.5 µM

- compound: "CSc1ccccc1-c1cnc2[nH]cc(-c3ccnc(NCCc4ccccc4)n3)c2c1 [1B9]"
  system.tested: "CDK-9/Cyclin T1 (Homo sapiens, UniProt P50750)"
  result: "> 50%"
- compound: "Nc1nccc(-c2c[nH]c3ncc(-c4cccc5ccccc45)cc23)n1 [1C14]"
  system.tested: "CDK-9/Cyclin T1 (Homo sapiens, UniProt P50750)"
  result: "> 70%"
- compound: "c1ccc(CCNc2nccc(-c3c[nH]c4ncc(-c5nccc6ccccc56)cc34)n2)cc1 [1B20]"
  system.tested: "CDK-9/Cyclin T1 (Homo sapiens, UniProt P50750)"
  result: "> 50%"
- compound: "Cc1cccc(-c2cnc3[nH]cc(-c4ccnc(N)n4)c3c2)c1 [1C7]"
  system.tested: "CDK-9/Cyclin T1 (Homo sapiens, UniProt P50750)"
  result: "> 70%"
- compound: "Fc1cccc(-c2cnc3[nH]cc(-c4ccnc(NCCc5ccccc5)n4)c3c2)c1 [1B5]"
  system.tested: "CDK-9/Cyclin T1 (Homo sapiens, UniProt P50750)"
  result: "> 50%"

###

Attribute: inhibition at 10 µM
System: PC-3
Assay: MTT assay on cancer cell line PC-3
Type: cell-based, human
Conditions: Homo sapiens, Table 8, read-out: In vitro cell inhibition, % of inhibition, PC-3

- chemical.structure: "FC(F)(F)c1ccc(-c2cnc3[nH]cc(-c4ccnc(NC5CCCCCC5)n4)c3c2)cc1"
  inhibition at 10 µM: "< 50%"
- chemical.structure: "c1cc(-c2c[nH]c3ncc(-c4ccoc4)cc23)nc(NC2CC2)n1"
  inhibition at 10 µM: "> 70%"
- chemical.structure: "Fc1ccc(-c2cnc3[nH]cc(-c4ccnc(NCCc5ccccc5)n4)c3c2)cc1"
  inhibition at 10 µM: "< 50%"

###

Test system: PC-3
Test: MTT assay on cancer cell line PC-3
Format: cell-based, human
Conditions: Homo sapiens, Table 9 (for reference), read-out: In vitro cell inhibition, % of inhibition, PC-3
We begin with a simple list: items and their reported inhibition at 10 µM.
measured.property: inhibition at 10 µM

- chemical.structure: "Nc1nccc(-c2c[nH]c3ncc(-c4ccc(C(F)(F)F)cc4)cc23)n1"
  result: "> 50%"
- chemical.structure: "Nc1nccc(-c2c[nH]c3ncc(-c4ccc(Cl)cc4)cc23)n1"
  result: "> 70%"
- chemical.structure: "CSc1ccc(-c2cnc3[nH]cc(-c4ccnc(N)n4)c3c2)cc1"
  result: "< 50%"
- chemical.structure: "COc1ccc(-c2cnc3[nH]cc(-c4ccnc(N)n4)c3c2)cc1"
  result: "< 50%"
- chemical.structure: "Nc1nccc(-c2c[nH]c3ncc(-c4ccc(OC(F)(F)F)cc4)cc23)n1"
  result: "> 50%"
- chemical.structure: "CCc1ccccc1-c1cnc2[nH]cc(-c3ccnc(N)n3)c2c1"
  result: "> 70%"
- chemical.structure: "Cc1cccc(-c2cnc3[nH]cc(-c4ccnc(N)n4)c3c2)c1"
  result: "> 50%"
- chemical.structure: "Nc1nccc(-c2c[nH]c3ncc(-c4cccc(C(F)(F)F)c4)cc23)n1"
  result: "< 50%"
- chemical.structure: "Nc1nccc(-c2c[nH]c3ncc(-c4cccnc4)cc23)n1"
  result: "< 50%"
- chemical.structure: "COc1ccc2[nH]c(-c3cnc4[nH]cc(-c5ccnc(N)n5)c4c3)cc2c1"
  result: "> 50%"
- chemical.structure: "Nc1nccc(-c2c[nH]c3ncc(-c4ccoc4)cc23)n1"
  result: "< 50%"
- chemical.structure: "Nc1nccc(-c2c[nH]c3ncc(-c4cccc5ccccc45)cc23)n1"
  result: "> 70%"
- chemical.structure: "Nc1nccc(-c2c[nH]c3ncc(-c4nccc5ccccc45)cc23)n1"
  result: "> 50%"
- chemical.structure: "Nc1nccc(-c2c[nH]c3ncc(-c4cc5ccccc5s4)cc23)n1"
  result: "> 70%"
- chemical.structure: "CSc1ccccc1-c1cnc2[nH]cc(-c3ccnc(N)n3)c2c1"
  result: "> 70%"
- chemical.structure: "Nc1nccc(-c2c[nH]c3ncc(-c4ccc(C=O)cc4)cc23)n1"
  result: "> 50%"

###

Recorded inhibition at 0.5 µM by entry
Target: CDK-2/cyclin A (Homo sapiens)
Assay: CDK inhibition assay, CDK-2/cyclin A against Histone HI, 33P-ATP
Format: biochemical
Details: at 500 nM; read-out: inhibition against CDK2
measured.property: inhibition at 0.5 µM

- compound: "c1ccc2c(-c3cnc4[nH]cc(-c5ccnc(NC6CC6)n5)c4c3)cccc2c1 [1A14]"
  result: "> 50%"
- compound: "CSc1ccccc1-c1cnc2[nH]cc(-c3ccnc(NCCc4ccccc4)n3)c2c1 [1B9]"
  result: "> 50%"
- compound: "COc1ccc2[nH]c(-c3cnc4[nH]cc(-c5ccnc(NC6CC6)n5)c4c3)cc2c1 [1A17]"
  result: "> 50%"

###

System: PC-3
Assay: MTT assay on cancer cell line PC-3
Format: cell-based, human
Conditions: Homo sapiens, Table 8, read-out: In vitro cell inhibition, % of inhibition, PC-3

- compound: "Fc1cccc(-c2cnc3[nH]cc(-c4ccnc(NCCc5ccccc5)n4)c3c2)c1 [1B5]"
  system.tested: "PC-3"
  inhibition at 10 µM: "> 50%"
- compound: "Fc1ccc(-c2cnc3[nH]cc(-c4ccnc(NC5CC5)n4)c3c2)cc1 [1A2]"
  system.tested: "PC-3"
  inhibition at 10 µM: "> 50%"
- compound: "Fc1cccc(-c2cnc3[nH]cc(-c4ccnc(NC5CC5)n4)c3c2)c1 [1A5]"
  system.tested: "PC-3"
  inhibition at 10 µM: "> 70%"

###

Below, each entry is listed with its recorded inhibition at 0.5 µM.
Molecular target: CDK-2/cyclin A (Homo sapiens)
Assay: CDK inhibition assay, CDK-2/cyclin A against Histone HI, 33P-ATP
Assay type: biochemical
Details: at 500 nM; Table-7; read-out: In vitro CDK2 % of inhibition

- chemical.structure: "Nc1nccc(-c2c[nH]c3ncc(-c4cccc5ccccc45)cc23)n1"
  inhibition at 0.5 µM: "> 70%"
- chemical.structure: "CCc1ccccc1-c1cnc2[nH]cc(-c3ccnc(NC4CCCCCC4)n3)c2c1"
  inhibition at 0.5 µM: "> 70%"
- chemical.structure: "c1ccc(CCNc2nccc(-c3c[nH]c4ncc(-c5cc6ccccc6[nH]5)cc34)n2)cc1"
  inhibition at 0.5 µM: "> 50%"
- chemical.structure: "Nc1nccc(-c2c[nH]c3ncc(-c4cccc(C(F)(F)F)c4)cc23)n1"
  inhibition at 0.5 µM: "> 70%"
- chemical.structure: "FC(F)(F)c1cccc(-c2cnc3[nH]cc(-c4ccnc(NCCc5ccccc5)n4)c3c2)c1"
  inhibition at 0.5 µM: "> 70%"
- chemical.structure: "c1ccc(CCNc2nccc(-c3c[nH]c4ncc(-c5cccc6ccccc56)cc34)n2)cc1"
  inhibition at 0.5 µM: "> 50%"
- chemical.structure: "Cc1cccc(-c2cnc3[nH]cc(-c4ccnc(N)n4)c3c2)c1"
  inhibition at 0.5 µM: "> 70%"

###

Biological target: CDK-2/cyclin A (Homo sapiens)
Assay: CDK inhibition assay, CDK-2/cyclin A against Histone HI, 33P-ATP
Format: biochemical
Conditions: at 500 nM; Table-6; read-out: In vitro CDK2 % of inhibition

- chemical.structure: "FC(F)(F)c1ccc(-c2cnc3[nH]cc(-c4ccnc(NC5CCCCCC5)n4)c3c2)cc1"
  inhibition at 0.5 µM: "< 50%"
- chemical.structure: "c1ccc2[nH]c(-c3cnc4[nH]cc(-c5ccnc(NC6CCCC6)n5)c4c3)cc2c1"
  inhibition at 0.5 µM: "> 50%"
- chemical.structure: "c1ccc2sc(-c3cnc4[nH]cc(-c5ccnc(NC6CC6)n5)c4c3)cc2c1"
  inhibition at 0.5 µM: "> 70%"
- chemical.structure: "FC(F)(F)Oc1ccc(-c2cnc3[nH]cc(-c4ccnc(NC5CCCC5)n4)c3c2)cc1"
  inhibition at 0.5 µM: "> 70%"
- chemical.structure: "Cc1ccc(-c2cnc3[nH]cc(-c4ccnc(NC5CCCC5)n4)c3c2)cc1"
  inhibition at 0.5 µM: "> 50%"
- chemical.structure: "Fc1ccc(-c2cnc3[nH]cc(-c4ccnc(NC5CCCCCC5)n4)c3c2)cc1"
  inhibition at 0.5 µM: "> 50%"
- chemical.structure: "c1ccc2c(-c3cnc4[nH]cc(-c5ccnc(NC6CCCC6)n5)c4c3)cccc2c1"
  inhibition at 0.5 µM: "> 50%"
- chemical.structure: "c1cncc(-c2cnc3[nH]cc(-c4ccnc(NC5CCCC5)n4)c3c2)c1"
  inhibition at 0.5 µM: "> 50%"
- chemical.structure: "Fc1ccc(-c2cnc3[nH]cc(-c4ccnc(NC5CC5)n4)c3c2)cc1"
  inhibition at 0.5 µM: "> 70%"
- chemical.structure: "FC(F)(F)c1ccc(-c2cnc3[nH]cc(-c4ccnc(NC5CC5)n4)c3c2)cc1"
  inhibition at 0.5 µM: "< 50%"
- chemical.structure: "c1cc(-c2c[nH]c3ncc(-c4ccoc4)cc23)nc(NC2CC2)n1"
  inhibition at 0.5 µM: "> 70%"
- chemical.structure: "Fc1cccc(-c2cnc3[nH]cc(-c4ccnc(NC5CC5)n4)c3c2)c1"
  inhibition at 0.5 µM: "> 70%"
- chemical.structure: "Clc1ccc(-c2cnc3[nH]cc(-c4ccnc(NC5CC5)n4)c3c2)cc1"
  inhibition at 0.5 µM: "> 70%"
